Cited source: patent US20240124483A1

Here, each record is paired with measured KRas G12D mutant + SOS: % inh. data.
MEASUREMENT TARGET: KRas G12D mutant (Homo sapiens (Human), UniProt P01116, G12D)
Sequence (P01116 other isoform, or with tags, fused parts or gaps G12D): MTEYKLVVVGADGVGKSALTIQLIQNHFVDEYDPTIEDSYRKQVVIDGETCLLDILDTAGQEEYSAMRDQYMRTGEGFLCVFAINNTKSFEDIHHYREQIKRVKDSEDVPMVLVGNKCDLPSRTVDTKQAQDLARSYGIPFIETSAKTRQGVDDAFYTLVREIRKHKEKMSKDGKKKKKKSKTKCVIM
TEST: Ras GTP Binding Domain Inhibition Assay, KRas G12D mutant
TEST CONDITIONS: 20 uM; + SOS; Table 8

compound="COCCCOc1nc(-c2nccn2C)nc2sc(-c3ccn(C(C)C)n3)c(-c3ccccc3)c12 [Compound 37]" measurement_kind="KRas G12D mutant + SOS: % inh." result="0 (0 = 0% inhibition)"

Enquiry: What does the data say about its KRas G12D mutant + SOS: % inh.? Entry: COc1cc(Cn2c(-c3nccn3C)nc3sc(-c4ccn(C(C)C)n4)c(C)c3c2=O)ncn1 [Compound 35]
Return: 0 (0 = 0% inhibition)
